Data origin, for the record: paper PMC5540273

test system: PRKCE; conditions: concentration: 1 μM, replicates: in singlicate; n = 1;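 further: KINOMEscan kinase panel screen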
Reported %Inh is given for each of the following compounds.
Quick note: give the figure in %, leave out the unit.

CPD SMILES	RESULT TYPE	U	RESULT VALUE
Cc1csc(-c2nc(Nc3ccncc3)c3ccccc3n2)n1	%Inh	%	37
CCn1c(-c2cccnc2O)nc2cnccc21	%Inh	%	3
COc1ccc(C2=C(Nc3cccc(C(=O)O)c3)C(=O)NC2=O)cc1	%Inh	%	25
CN1C(=O)C(Nc2ccc(Cl)c(C(=O)O)c2)=C(c2ccc(Cl)cc2)C1=O	%Inh	%	35

# input for lookup
Using known records, supply %Inh for Cc1cccc(-c2nc(Nc3ccncc3)c3ccccc3n2)n1
0
